ASSAY_TARGET: CERT (Homo sapiens, UniProt Q9Y5P4)
Construct: made in house; host or cells: E. coli BL21 (DE3), pET-28a(+)
Sequence (Q9Y5P4 1-598 isoform Q9Y5P4-2): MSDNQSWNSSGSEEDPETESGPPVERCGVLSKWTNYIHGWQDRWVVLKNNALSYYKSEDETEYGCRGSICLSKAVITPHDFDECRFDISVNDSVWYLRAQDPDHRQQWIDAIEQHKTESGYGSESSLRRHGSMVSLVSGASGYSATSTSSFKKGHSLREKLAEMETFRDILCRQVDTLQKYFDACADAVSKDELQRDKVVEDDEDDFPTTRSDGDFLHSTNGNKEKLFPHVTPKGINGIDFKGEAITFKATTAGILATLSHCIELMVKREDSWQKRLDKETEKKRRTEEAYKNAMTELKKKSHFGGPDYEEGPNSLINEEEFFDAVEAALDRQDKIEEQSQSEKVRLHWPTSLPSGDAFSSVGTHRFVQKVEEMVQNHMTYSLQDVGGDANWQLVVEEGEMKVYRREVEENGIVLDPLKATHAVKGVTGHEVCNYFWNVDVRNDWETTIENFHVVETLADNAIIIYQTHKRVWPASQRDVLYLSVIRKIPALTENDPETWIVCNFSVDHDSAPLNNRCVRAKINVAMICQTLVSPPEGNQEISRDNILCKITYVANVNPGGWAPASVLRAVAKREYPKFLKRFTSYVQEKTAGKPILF
EXPERIMENT: Liposomal FRET CERT transfer assay (NBD-Cer/NR-Cer), 96-well
Assay type: biochemical
MEASUREMENT_CONTEXT: dose-response
VALUE_KIND: activity in the transfer assay

MOLECULE | ASSAY_TARGET | RESULT
CCCC(=O)OCOC(=O)C1=C(C)NC(C)=C(C(=O)OC)C1c1cccc(Cl)c1Cl (stereo not shown) [6B11, Clevidipine butyrate] | CERT (Homo sapiens, UniProt Q9Y5P4) | high activity
Cc1cc(C2=NOC(c3cc(Cl)cc(Cl)c3)(C(F)(F)F)C2)ccc1C(=O)NCC(=O)NCC(F)(F)F (stereo not shown) | CERT (Homo sapiens, UniProt Q9Y5P4) | high activity
O=C(NC1CCN(CCCCC2(C(=O)NCC(F)(F)F)c3ccccc3-c3ccccc32)CC1)c1ccccc1-c1ccc(C(F)(F)F)cc1 [8E8, lomitapide] | CERT (Homo sapiens, UniProt Q9Y5P4) | high activity
